Values were extracted from PubChem BioAssay (NCI).

Below, each entry is listed alongside its reported TGI.
tested on: HOP-92 NSCLC; test: NCI tumour cell line growth inhibition, 48 h
Where a SMILES comes first, the peptide text is derived from it.

[
  {
    "MOLECULE": "CN(C)CCNC(=O)c1ccc2oc3cc4ccccc4c(=O)n3c2c1",
    "RESULT_OPERATOR": ">",
    "TGI (µM)": 100
  },
  {
    "MOLECULE": "CCN(CCO)CCNc1ccc(C)c2sc3ccccc3c(=O)c12",
    "RESULT_OPERATOR": "=",
    "TGI (µM)": 14.1
  },
  {
    "MOLECULE": "O=C(Cc1nc2ccc([N+](=O)[O-])cc2[nH]c1=O)C(=O)Nc1ccccc1[N+](=O)[O-]",
    "RESULT_OPERATOR": ">",
    "TGI (µM)": 100
  },
  {
    "MOLECULE": "COc1cc(C2OC[C@@H]3C(=O)OC[C@H]23)cc(O)c1OC (stereo not given in full)",
    "RESULT_OPERATOR": ">",
    "TGI (µM)": 100
  },
  {
    "MOLECULE": "CC(=O)Oc1ccc2cc(-c3ccc(OC(C)=O)c(OC(C)=O)c3)c(=O)oc2c1",
    "RESULT_OPERATOR": "=",
    "TGI (µM)": 95.2
  },
  {
    "MOLECULE": "Cn1cc(-c2nnc(-c3ccc(Cl)cc3)[nH]c2=O)c2ccccc21",
    "RESULT_OPERATOR": ">",
    "TGI (µM)": 100
  },
  {
    "MOLECULE": "CCOC(=O)c1cc(NS(=O)(=O)c2ccc(C)cc2)cc(C(=O)OCC)c1",
    "RESULT_OPERATOR": ">",
    "TGI (µM)": 100
  },
  {
    "MOLECULE": "CCC12C=CCN3CCC4(c5cc(C(c6ccc(OC)cc6)C6Cc7ccccc7N6)c(OC)cc5N(C)C4C(O)(C(=O)OC)C1O)C32 (stereo not given)",
    "RESULT_OPERATOR": "=",
    "TGI (µM)": 8.14
  },
  {
    "MOLECULE": "COc1cc(/C=C/C(=O)c2c(-c3ccc(F)cc3)nc3sc(C)nn23)cc(OC)c1OC",
    "RESULT_OPERATOR": "=",
    "TGI (µM)": 8.64
  },
  {
    "MOLECULE": "O=C1[C@@H](O)[C@@H]2CCCC[C@@]23CCCN13",
    "RESULT_OPERATOR": ">",
    "TGI (µM)": 100
  },
  {
    "MOLECULE": "COc1cc(CCNC(=O)OC(C)(C)C)c2c(c1OC)SSSSS2",
    "RESULT_OPERATOR": "=",
    "TGI (µM)": 4.79
  },
  {
    "MOLECULE": "N#CCc1nnc(N)o1",
    "RESULT_OPERATOR": ">",
    "TGI (µM)": 100
  },
  {
    "MOLECULE": "O=C1CS(=O)(=O)C(c2cccc(Oc3ccccc3)c2)N1C1CC1 (stereo not given)",
    "RESULT_OPERATOR": ">",
    "TGI (µM)": 100
  },
  {
    "MOLECULE": "C=CC1(c2ccc3ccccc3c2)OCC(CC)O1 (stereo not given)",
    "RESULT_OPERATOR": "=",
    "TGI (µM)": 75.2
  },
  {
    "MOLECULE": "CC(C)C(=O)c1c(C(F)(F)F)n([O-])c2ccccc2[n+]1=O",
    "RESULT_OPERATOR": "=",
    "TGI (µM)": 1.62
  },
  {
    "MOLECULE": "O=S(=O)(O)c1ccc2c(N=Nc3ccccc3)c(O)ccc2c1",
    "RESULT_OPERATOR": ">",
    "TGI (µM)": 100
  },
  {
    "MOLECULE": "N=C(N)c1ccc(N=Nc2c(O)ccc3cc4c(N=Nc5ccc(C(=N)N)cc5)c(O)ccc4cc23)cc1",
    "RESULT_OPERATOR": ">",
    "TGI (µM)": 100
  },
  {
    "MOLECULE": "CCC(C)C(NC(=O)C(CC(C)C)NC(=O)CNC(=O)C(NC(=O)C1CCCN1C(=O)C(CC(C)C)NC(=O)C(N)Cc1ccccc1)C(C)CC)C(=O)NC(CC(C)C)C(N)=O (stereo not given) (H-FLPIGLIL-NH2; configuration not given here)",
    "RESULT_OPERATOR": ">",
    "TGI (µM)": 75
  },
  {
    "MOLECULE": "Oc1ccccc1/C=N\\NC(=S)N/N=C/c1ccccc1O",
    "RESULT_OPERATOR": "=",
    "TGI (µM)": 64.5
  },
  {
    "MOLECULE": "Cn1c(=O)c(Oc2ccc(F)cc2F)cc2cnc(NC3CCOCC3)nc21",
    "RESULT_OPERATOR": "=",
    "TGI (µM)": 19.4
  },
  {
    "MOLECULE": "Cc1ccc(S(=O)(=O)OCCOCCOCCOCCOCCOS(=O)(=O)c2ccc(C)cc2)cc1",
    "RESULT_OPERATOR": "=",
    "TGI (µM)": 99.3
  },
  {
    "MOLECULE": "COC(=O)C(c1ccc(OC)cc1)N1C(=O)[C@@H](NC(=O)c2ccccc2)[C@H]1[C@@H](C)O (stereo not given in full)",
    "RESULT_OPERATOR": ">",
    "TGI (µM)": 100
  },
  {
    "MOLECULE": "C(#CC1(Nc2ccccc2)CCN(Cc2ccccc2)CC1)C1(Nc2ccccc2)CCN(Cc2ccccc2)CC1",
    "RESULT_OPERATOR": "=",
    "TGI (µM)": 33.9
  },
  {
    "MOLECULE": "Cc1ccc(-c2nnc3s/c(=C\\c4ccc(N(C)C)cc4)c(=O)n23)cc1",
    "RESULT_OPERATOR": ">",
    "TGI (µM)": 100
  },
  {
    "MOLECULE": "O=C(O)Cc1ccc(N=Nc2c(O)c(C(=O)O)cc3ccccc23)cc1",
    "RESULT_OPERATOR": ">",
    "TGI (µM)": 100
  },
  {
    "MOLECULE": "O=C1CC(CC(OCc2ccccc2)C(OCc2ccccc2)C(COCc2ccccc2)OCc2ccccc2)CC(=O)N1 (stereo not given)",
    "RESULT_OPERATOR": ">",
    "TGI (µM)": 100
  },
  {
    "MOLECULE": "CC(=O)Nc1cc2nc3n(c2cc1C)CCC3OC(C)=O (stereo not given)",
    "RESULT_OPERATOR": ">",
    "TGI (µM)": 100
  },
  {
    "MOLECULE": "CCCN(CCC)c1ccc(C=O)c(C)c1",
    "RESULT_OPERATOR": "=",
    "TGI (µM)": 64.7
  },
  {
    "MOLECULE": "O=C(O)c1c2c(cc3c(=O)cc(-c4ccccc4)oc13)CCCC2",
    "RESULT_OPERATOR": ">",
    "TGI (µM)": 100
  },
  {
    "MOLECULE": "CS(=O)(=O)O[C@H]1[C@H](O)c2ccccc2[C@@H]1N=[N+]=[N-]",
    "RESULT_OPERATOR": ">",
    "TGI (µM)": 100
  },
  {
    "MOLECULE": "O=C([CH-]C(=O)c1ccccc1)c1ccccc1.O=C([CH-]C(=O)c1ccccc1)c1ccccc1.O=C([CH-]C(=O)c1ccccc1)c1ccccc1.[Cl-].[Hf+4]",
    "RESULT_OPERATOR": "=",
    "TGI (µM)": 36.1
  },
  {
    "MOLECULE": "CC(C)(C)n1c(=O)n2n(c1=O)C1c3cccc4cccc(c34)C2C2c3cccc4cccc(c34)C1n1c(=O)n(C(C)(C)C)c(=O)n12",
    "RESULT_OPERATOR": ">",
    "TGI (µM)": 100
  },
  {
    "MOLECULE": "O=c1c(-c2ccccc2)c(SCCN2CCOCC2)n(-c2ccccc2)c(=S)n1-c1ccccc1",
    "RESULT_OPERATOR": ">",
    "TGI (µM)": 100
  },
  {
    "MOLECULE": "CC1=C(C(=O)CC(=O)C(=O)Nc2ccc(C)c(C)c2)Sc2ccccc2N1",
    "RESULT_OPERATOR": ">",
    "TGI (µM)": 100
  },
  {
    "MOLECULE": "Cc1cc(=O)n2c3c(c4c(cc13)c(CN(C)C)cc(=O)n4C)OC2",
    "RESULT_OPERATOR": "=",
    "TGI (µM)": 97.6
  },
  {
    "MOLECULE": "COc1ccc(N=Cc2ccc(N(CCC#N)S(=O)(=O)c3ccccc3)cc2C)cc1",
    "RESULT_OPERATOR": ">",
    "TGI (µM)": 100
  },
  {
    "MOLECULE": "Nc1ncn([C@H]2C[C@H](OP(=O)(O)OC[C@H]3O[C@@H](n4cnc5c(=O)[nH]c(N)nc54)C[C@@H]3O)[C@@H](CO)O2)c(=O)n1",
    "RESULT_OPERATOR": ">",
    "TGI (µM)": 100
  },
  {
    "MOLECULE": "COc1ccc(Cn2cc3c(c2-c2cc(OC)c(OC)c(OC)c2)CCc2c(CO)noc2-3)cc1",
    "RESULT_OPERATOR": "=",
    "TGI (µM)": 22.2
  },
  {
    "MOLECULE": "N#CC1=C(N)Oc2c(sc3c(Br)cccc23)C1c1ccc(Cl)cc1 (stereo not given)",
    "RESULT_OPERATOR": "=",
    "TGI (µM)": 7.29
  },
  {
    "MOLECULE": "C=CCOC(=O)Nc1cccn([C@H](CC(C)C)C(=O)NCCC(C)C)c1=O",
    "RESULT_OPERATOR": "=",
    "TGI (µM)": 57.8
  }
]
